assay: folding stability dG unfold (combined trypsin and chymotrypsin); higher = more stable
The entries below come with measured folding stability dG unfold values attached.

folding stability dG unfold measured on SAGGSAGGSAGVKPGQTIEVPGAKITVEEVDGKLVLKVEELPPPPAPEVEVKRYVSEEDLSAGGSAGGSAGG [r11_534_TrROS_Hall] = < -1 kcal/mol

Further cases:
folding stability dG unfold measured on SAGMFYVLKTKRPTPSAPPEVLAADPNAEVETEYKLSPDTSEEEIKKIKEELKNKGWKEVKLVPISELKSAG [r5_60_JUSTAS] = < -1 kcal/mol

folding stability dG unfold measured on SAGPKINLYRLPNGFLAAKSRSTRPDGKELGTWEKTYLVPGSGKPRTLELPIYDNEKGYVIYAYEEDYSAGG [r19_185_TrMRF] = < -1 kcal/mol

====

experiment: folding stability dG unfold (combined trypsin and chymotrypsin); higher = more stable
result.type: folding stability dG unfold (kcal/mol)
Answer with a number only, understood to be in kcal/mol.

Before answering, review these 4 worked examples.
folding stability dG unfold measured on SAGGGNKVLLVVEAESPEVLEEKIREAEEAFGFTVTPLRREPLPDDRYRLVLEIDAPPEVVEFFKKESAGGS [r8_357_TrMRF] = 1.3

folding stability dG unfold measured on SAGGSAGGSAGGKLILKVKVEVVSVKVEPLPGVPGEVKVEVEVKVEVELIEVSEEELKSSAGGSAGGSAGGS [r10_654_TrROS_Hall] = 2.19

folding stability dG unfold measured on SAGGSAGGSASMAPPEVLSLPVEILEKSPDGSVTVLVPETGEVLTFPSPKVNVTPDGTLNLSSAGGSAGGSA [r18_89_JUSTAS] = 0.0808

folding stability dG unfold measured on SAGGSAGGSPGVRVKPVGDHYVVEIPLPPSVPLGRAVFEVEGGYAETVAVDPERGIATVRVPLSAGGSAGGS [r12_675_TrMRF] = -0.352

# evaluate next
folding stability dG unfold measured on SAGGSAGGSAGVVLKEPKGGVPKTITEDPNHPGLYTTGSPDGTISTRPLEIKPEEEPVLLSAGGSAGGSAGG [r17_85_JUSTAS] = -0.739

====

experiment: folding stability dG unfold from trypsin proteolysis; higher = more stable
Returns met if the recorded folding stability dG unfold is greater than or equal to 0.9 kcal/mol, and not met otherwise.

The following sequences have reported results that may help.
Exercise: Reported folding stability dG unfold reaches at least 0.9 kcal/mol for SAGGSAGGSMYRVRIKVRNRETGEWLEIELEVPEGVTEEELKAALRELFPDAEIVDIEIEKLPSAGGSAGGS [r12_738_TrROS_Hall] ?
Key: met

Exercise: Reported folding stability dG unfold reaches at least 0.9 kcal/mol for SAGGMPPDARKLIREIAQDFGMSDIEPDEEGHVRINMPNPMMIQVDVENGEPKIKIYNNNKWREIPISAGGS [r16_296_TrROS] ?
Key: not met

Exercise: Reported folding stability dG unfold reaches at least 0.9 kcal/mol for SKGTFRAVLPLETLKELIERFKSKGYRIEVKPLSIKPFEVPGIREDGTPELFPVVEVEAEIEIYPPEDPASA [r9_991_TrMRF] ?
Key: met

Exercise: Reported folding stability dG unfold reaches at least 0.9 kcal/mol for SAGGSFLVPTSSMEEAEEIKNAVLAGEPVTVTPPDGVPVTVKAKSVEVDPETGKVRIIDPSGEKLALSAGGS [r16_254_JUSTAS] ?
Key: not met

Now let's try a different one.
Exercise: Reported folding stability dG unfold reaches at least 0.9 kcal/mol for SAGGSAGGSAGMKPDDTVTYTITVPHPESGEPLAEIELTYPVGTPIEKVKEEAKILAEKISAGGSAGGSAGG [r11_516_TrMRF] ?
Key: not met

====

experiment: folding stability dG unfold from trypsin proteolysis; higher = more stable
Returns TRUE if the recorded folding stability dG unfold is greater than or equal to 0.7 kcal/mol, and FALSE otherwise.

The following sequences have reported results that may help.
Exercise: Reported folding stability dG unfold reaches at least 0.7 kcal/mol for SAGGSAGGSKAKIEVLEVFPDYIVYKIETENPVIAVIVPLPNGKVKIFVFNPNGEPIAEFELGSAGGSAGGS [r12_1061_TrMRF] ?
Key: TRUE

Exercise: Reported folding stability dG unfold reaches at least 0.7 kcal/mol for MEELEKLPGIKVEPIREEDGRLYLRVTFTDEVAKALGKPPVTVLIEVEPGEELELSPELRELLRKLGIEVVS [r1_256_TrROS_Hall] ?
Key: TRUE

Exercise: Reported folding stability dG unfold reaches at least 0.7 kcal/mol for SAPPETVEVEEVAEFELADGSKVTVAKVKLPNGETLVVVTVYNKDGEPVATFVVREGDPDALAEALKALSSA [r9_1069_TrROS_Hall] ?
Key: TRUE

Exercise: Reported folding stability dG unfold reaches at least 0.7 kcal/mol for SAGGSAGGIRINPENGQIYFPLENGKAKSVPFKPGQEREIPNGWRITIKPDPPGPWEIEVKPLDSAGGSAGG [r6_296_TrROS] ?
Key: FALSE

Exercise: Reported folding stability dG unfold reaches at least 0.7 kcal/mol for SAGGSAGGSMRVRFLVTEPGLGPETAALRVERRLLEEYPVRVKGVRVRTRPDGGYLVVVEVEPSAGGSAGGS [r12_781_TrMRF] ?
Key: FALSE

Further cases:
Exercise: Reported folding stability dG unfold reaches at least 0.7 kcal/mol for SAGGSAGGSPNPKNVKIYLVALDPDKPEVVAEASFNITVDTEEELEAILKELVPLFPGAKVFASAGGSAGGS [r12_1043_TrMRF] ?
Key: TRUE

Exercise: Reported folding stability dG unfold reaches at least 0.7 kcal/mol for SAGGSAGGSAGGMVIKITTESGEKIEIEVPEEDEEKVKELVKELEKAGFKVKKVEVFEPSAGGSAGGSAGGS [r10_231_TrROS_Hall] ?
Key: TRUE

Exercise: Reported folding stability dG unfold reaches at least 0.7 kcal/mol for SAGGSAGGSGMMFELAFREIKYSPNDSVTIKAELPDGSSITIPTKKGEIKFKLPENGYVKVLGSAGGSAGGS [r12_746_JUSTAS] ?
Key: FALSE

Exercise: Reported folding stability dG unfold reaches at least 0.7 kcal/mol for SAGGMKITTKDGSTITVETEPGKVTITIKPPGDGSTTTLPFPAPSEEEGIEAAIKKIEEEGNVEEIELSAGG [r13_579_JUSTAS] ?
Key: FALSE

====

test: folding stability dG unfold from chymotrypsin proteolysis; higher = more stable
result.type: folding stability dG unfold (kcal/mol)
Answer with a number only, understood to be in kcal/mol.

folding stability dG unfold measured on SAGGSAGGSAGGSGFILKESPDSVLSYDAITGETKKVPSKDVVLEYDPNNGVYTLTVSKSAGGSAGGSAGGS [r4_127_JUSTAS] = 0.639

Further cases:
folding stability dG unfold measured on SAKTIKIEIEVKPEKLEEVLEEIAKALAEKLGLPEDVKEIKIEVTKIEVEKVKVDGKEYVKVKIEIKVESAG [r14_736_TrROS_Hall] = 3.97

folding stability dG unfold measured on SAGGSPWIEVEIPFPPGMPADELADFIAEELDENGHDVKVDDVEQDPEEGYMKFRVRDGKSVEIPWSAGGSA [r2_242_TrROS] = -0.522

folding stability dG unfold measured on SAGGMRPMVVTVRYPDGSVQTLVADYDPDTDVIRFPFPSDGTERDIPAGEWREDPDYQVLSETPLSLESAGG [r13_994_JUSTAS] = 0.0211

folding stability dG unfold measured on SAGGSAGGSAGMKVAVLTIPENGKPVLVVELPDGGALAFDPDTDAVFLLDDDKIYYLGPASAGGSAGGSAGG [r17_476_TrMRF] = 1.52

folding stability dG unfold measured on SAGGSMKIKVEYEELPNGKMVIRIDIPPEENNMTPEQVETIAKEIAEEFPNVKVETTPGSIWIRVPSAGGSA [r2_256_TrROS] = 1.21

folding stability dG unfold measured on SADPNYHYKYKIKIEIAWFPPDDLEKLPPGMIMIPFDDHWIMIVIKLEPVEREPPPPPPEYDPETGDWKSAG [r14_126_TrROS] = 3.38

folding stability dG unfold measured on SAGGSMERTVELTYTFKDKPIKITITVTTDPETGTVTVPIEIETEDEKIKEPALEKAKELAEELLASAGGSA [r2_259_JUSTAS] = 0.26

folding stability dG unfold measured on SAGGMPVPVTFPFAGADEVIAFATALEELVNAPVGLTLISPSGEEREVGDPDSIVDEDGFTVRVTVPASAGG [r13_620_TrMRF] = -0.382

====

test: folding stability dG unfold (combined trypsin and chymotrypsin); higher = more stable
result.type: folding stability dG unfold (kcal/mol)
Answer with a number only, understood to be in kcal/mol.

Before answering, review these 2 worked examples.
folding stability dG unfold measured on SKTYTAEEIKKLFPNIKKVEVKDGKVRLTVENENGEKFEIEITFEAPKPEPEVEEEVEKKKEEELSEEDLSA [r9_427_TrROS_Hall] = 1.65

folding stability dG unfold measured on SAGGSAGGVVLEVEIPYESEEEAREKAEEVLKELGLPESAKITKIEFYPGPGEKKSVKVYIKLESAGGSAGG [r6_284_JUSTAS] = 1.83

Further cases:
folding stability dG unfold measured on SAGDWYIVIKITIYHPNKREREFPIVFDWKDGKIEIAPEFLQNIAEELGLPPNMKIEIEIVEIMPPNDSAGG [r19_287_TrROS] = 2.43
